For each of the molecules below, state its GI50.
test system: SF-295; test: NCI tumour cell line growth inhibition, 48 h
Activity calls are given as the source filed them. Cut-off read from the data, not from the text of the source: active = GI50 up to about 1.1 µM and inactive = higher.

Sure, the documented GI50 for `c1ccc(N2N=C3N(c4ccccc4)C2N3c2ccccc2)cc1` is 36.1 µM (inactive)

Sure, the documented GI50 for `O=C(NCc1ccccc1)c1cc2ccccc2o/c1=N\c1cccc(C(F)(F)F)c1` is 51.3 µM (inactive)

Sure, the documented GI50 for `S=c1[nH]c(=S)c2cc(Sc3ccc4[nH]c(=S)[nH]c(=S)c4c3)ccc2[nH]1` is 22 µM (inactive)

Sure, the documented GI50 for `O=[N+]([O-])c1ccccc1OCCOc1ccccc1[N+](=O)[O-]` is > 100 µM (inactive)

Sure, the documented GI50 for `COC1=C(OC)C(=O)C(C/C=C/c2c(Cl)nc3sccn23)=C(C)C1=O` is 2.1 µM (inactive)

Sure, the documented GI50 for CCOC(=O)C1=C(C)N(NC(=O)OC)C2(N)N(NC(=O)OC)C(C)=C(C(=O)OCC)C12C#N (stereo unspecified) is > 100 µM (inactive)

###

For each of the molecules below, state its GI50.
tested on: HCT-116; assay: NCI tumour cell line growth inhibition, 48 h
Active and inactive are the calls of the source. Cut-off read from the data, not from the text of the source: active = GI50 up to about 1.1 µM and inactive = higher.

Sure, the documented GI50 for `CSc1nc(NC(C)C)c2c(n1)Sc1nc3ccccc3n1N=C2` is 7.01 µM (inactive)

Sure, the documented GI50 for `O=NN(CCCl)C(=O)N[C@H]1CC[C@@H](CC(=O)O)CC1` is > 100 µM (inactive)

Sure, the documented GI50 for `Cc1[nH]c(O)nc1C(=O)c1ccc(-n2ccnc2)cc1` is > 100 µM (inactive)

Sure, the documented GI50 for `OCCNc1nc2c(N3CCCC3)nc(N3CCNCC3)nc2nc1NCc1ccccc1` is 10.1 µM (inactive)

Sure, the documented GI50 for CC1=C(C(=O)Nc2ccccc2)C(c2ccc(C)o2)C(C#N)=C(SCc2ccccc2)N1 (stereo unspecified) is 33.3 µM (inactive)

Sure, the documented GI50 for `COc1ccc(Cc2c(N)[nH]c(=O)n(C)c2=O)cc1` is > 100 µM (inactive)

Sure, the documented GI50 for CC(=O)Nc1ccc(C(=O)NN2C(=O)CSC2c2ccccc2)cc1 (stereo unspecified) is > 100 µM (inactive)

Sure, the documented GI50 for C(=C\c1ccccc1)/COc1ccccc1C(N1CCOCC1)n1nc2ccccc2n1 (stereo unspecified) is 5.31 µM (inactive)

Sure, the documented GI50 for `O=C(OCCN=c1c2ccccc2ccc2ccccc12)c1ccccc1` is 42.2 µM (inactive)

Sure, the documented GI50 for `Cc1[nH]nc(C(=O)N/N=C/c2cccs2)c1/N=N\N(C)C` is 11 µM (inactive)

Sure, the documented GI50 for `Cc1ccc(-c2nc(C)c(C(=O)Nc3ccc(Cl)cc3)s2)cc1` is 18.5 µM (inactive)

Sure, the documented GI50 for `Fc1ccc(F)c(/C=N/C23CC4CC(CC(C4)C2)C3)c1` is > 10 µM (inactive)

Sure, the documented GI50 for COc1ccc(C(=O)C#Cc2cn(C3CC(O)C(CO)O3)c(=O)[nH]c2=O)cc1 (stereo unspecified) is 39.7 µM (inactive)

Sure, the documented GI50 for COC1CC(OC2C(C)OC(OC3C(C)OC(OC4C(C)OC(O[C@H]5CC[C@@]6(C)C(=CC[C@]7(O)[C@@H]6C[C@@H](OC(=O)/C=C/c6ccccc6)[C@@]6(C)[C@]7(O)CC[C@@]6(O)C(C)=O)C5)CC4OC)CC3OC)CC2OC)OC(C)C1O (stereo partly specified) is > 12.5 µM (inactive)

Sure, the documented GI50 for `Clc1ccc(Nc2nc3ccccc3nc2-c2cccs2)cc1Cl` is 23.4 µM (inactive)

Sure, the documented GI50 for `CC(C)Oc1ccc(CNC2=NCCO2)c2ccccc12` is 12.6 µM (inactive)

Sure, the documented GI50 for C[C@H](CO)C1=CC(C#C[Si](C)(C)C)N(C(=O)Oc2ccccc2)c2ccccc21 (stereo partly specified) is 10.8 µM (inactive)

Sure, the documented GI50 for `Nc1nc(OCC2CCCCC2)c2nc[nH]c2n1` is 11.4 µM (inactive)

Sure, the documented GI50 for CCOC(=O)NC(NCC(O)c1ccccc1)(C(F)(F)F)C(F)(F)F (stereo unspecified) is > 100 µM (inactive)

Sure, the documented GI50 for `CC(C)=CCC[C@@H](C)c1c2nc3ccccc3sc-2c(C)c(=O)c1O` is 3.37 µM (inactive)

Sure, the documented GI50 for `C=C1C(=O)O[C@@H]2C[C@@]3(C)CCCC(=C)[C@@H]3C[C@H]12.C=C1C(=O)O[C@@H]2C[C@@]3(C)CCC[C@H](C)C3=C[C@H]12` is 1.41 µM (inactive)

###

For each of the compounds below, state its GI50.
system: UACC-62; experiment: NCI tumour cell line growth inhibition, 48 h
Calls of active or inactive are those of the source. Cut-off read from the data, not from the text of the source: active = GI50 up to about 1.1 µM and inactive = higher.

The compound C[C@H](CO)C1=CC(C#C[Si](C)(C)C)N(C(=O)Oc2ccccc2)c2ccccc21 (stereo partly specified) on UACC-62: GI50 was 5.3 µM (inactive)

The compound `C/C(CC(=O)Nc1cc(Cl)c(Cl)cc1Cl)=N\NS(=O)(=O)c1ccc(C)cc1` on UACC-62: GI50 was 26.5 µM (inactive)

The compound `C[Si](C)(C)CNC(=O)OCc1ccccc1` on UACC-62: GI50 was > 100 µM (inactive)

The compound `c1ccc(/N=c2\snc3scc(-c4ccccc4)n23)cc1` on UACC-62: GI50 was 30.1 µM (inactive)

The compound CC(=O)Nc1ccc(C(=O)NN2C(=O)CSC2c2ccccc2)cc1 (stereo unspecified) on UACC-62: GI50 was > 100 µM (inactive)

The compound CCOC(=O)CC(C)C(C#N)(OP1(=O)OC(c2ccccc2)C(C)N1C)c1ccccc1 (stereo unspecified) on UACC-62: GI50 was 58.7 µM (inactive)

The compound `COC1=C(OC)C(=O)C(C/C=C/c2c(Cl)nc3sccn23)=C(C)C1=O` on UACC-62: GI50 was 14.5 µM (inactive)

The compound `CC1(CCC(=O)OC2CCCCC2)OCCO1` on UACC-62: GI50 was > 100 µM (inactive)

The compound CCOC(=O)C(NC(=O)c1ccccc1)(Nc1cc(C)on1)C(F)(F)F (stereo unspecified) on UACC-62: GI50 was > 100 µM (inactive)

The compound `O=C(O)C1=C/C(=C(/c2ccccc2)c2cc(C(=O)O)c(O)c3ccccc23)c2ccccc2C1=O` on UACC-62: GI50 was > 100 µM (inactive)

The compound `Clc1ccc(Nc2nc3ccccc3nc2-c2cccs2)cc1Cl` on UACC-62: GI50 was 38.5 µM (inactive)

###

For each of the compounds below, state its GI50.
test system: NCI-H226; test: NCI tumour cell line growth inhibition, 48 h
Activity calls are given as the source filed them. Rule as the data show it: active = GI50 up to about 1.1 µM and inactive = higher.

Sure, the documented GI50 for `COc1ccc2oc(=N)c(C(N)=O)cc2c1` is 46.1 µM (inactive)

Sure, the documented GI50 for `Cc1[nH]c2ncn3nc(C(Cl)(Cl)Cl)nc3c2c1Cc1ccccc1` is > 100 µM (inactive)

Sure, the documented GI50 for `Cc1cc2oc(=N)c(C#N)c(C)c2cc1C` is 87.7 µM (inactive)

Sure, the documented GI50 for C[C@]12CCC3[C@@H](CC[C@@H]4c5nonc5CC[C@]34C)C1CCC2=O (stereo partly drawn) is 20 µM (inactive)

Sure, the documented GI50 for COC(=O)C1(Cc2ccc3c(c2)CCC3)Cc2ccccc2C1O (stereo not drawn) is 17.3 µM (inactive)

Sure, the documented GI50 for Cc1cc(=O)oc2cc(O)ccc12 [HYMECROMONE] is > 100 µM (inactive)

Sure, the documented GI50 for `CN(C)c1ccc(/C=N\N2C(=O)c3ccccc3C2=O)cc1` is > 100 µM (inactive)

Sure, the documented GI50 for CN(C)C1C(=O)C(C(N)=O)=C(O)C2(O)C(O)=C3C(=O)c4c(O)cccc4C(C)(O)C3CC12 (stereo not drawn) is 82.6 µM (inactive)

###

tested on: T47D; assay: NCI tumour cell line growth inhibition, 48 h
Calls of active or inactive are those of the source. No stated cut-off is given here; in the data, active = GI50 up to about 1.1 µM and inactive = higher.
Please state which outcome applies, choosing from active, inactive

# input Which outcome was entered for the molecule `OCCNc1nc2c(N3CCCC3)nc(N3CCNCC3)nc2nc1NCc1ccccc1` in this test?
# output inactive

# input Which outcome was entered for the molecule `CC(=O)O[C@@H]1[C@H]2[C@@H](OC(=O)c3ccccc3)[C@@H](C)C[C@]2(O)[C@H](OC(C)=O)[C@@]2(C)[C@@H]3CC(C)(C)C(=O)[C@]3(OC(C)=O)C[C@@]12C` in this test?
# output inactive

# input Which outcome was entered for the molecule `COC(=O)c1cc2c(cc1O)[C@@H](NC(C)=O)CCc1cc(OC)c(OC)c(OC)c1-2` in this test?
# output inactive

# input Which outcome was entered for the molecule CN(C)CCOc1ccc2[nH]c(C(=O)N3CC(CCl)c4c3cc([N+](=O)[O-])c3ccccc43)cc2c1 (stereo unspecified) in this test?
# output inactive

# input Which outcome was entered for the molecule `Cc1[nH]nc(C(=O)N/N=C/c2cccs2)c1/N=N\N(C)C` in this test?
# output inactive

# input Which outcome was entered for the molecule `COC1=C(OC)C(=O)C(C/C=C/c2c(Cl)nc3sccn23)=C(C)C1=O` in this test?
# output inactive

# input Which outcome was entered for the molecule CC[C@@]1(O)C(=O)OCc2c1cc1n(c2=O)Cc2c-1nc1ccccc1c2/C=N\NC(=O)C(N)CCSC (stereo partly specified) in this test?
# output active

# input Which outcome was entered for the molecule `O=C(NCc1ccccc1)c1cc2ccccc2o/c1=N\c1cccc(C(F)(F)F)c1` in this test?
# output inactive

# input Which outcome was entered for the molecule `[N-]=[N+]=NC1=C(c2ccccn2)C(=O)c2cccc3cccc1c23` in this test?
# output inactive

# input Which outcome was entered for the molecule `O=C1c2cc([N+](=O)[O-])cnc2S(=O)(=O)N1c1ccc(Oc2ccccc2)cc1` in this test?
# output inactive

# input Which outcome was entered for the molecule COc1cc(C2SCC(=O)N2c2ccc(NC(C)=O)cc2)cc(OC)c1OC (stereo unspecified) in this test?
# output inactive

# input Which outcome was entered for the molecule `CC(C)=CCC[C@@H](C)c1c2nc3ccccc3sc-2c(C)c(=O)c1O` in this test?
# output inactive

# input Which outcome was entered for the molecule COC(=O)C1(Cc2ccc3c(c2)CCC3)Cc2ccccc2C1O (stereo unspecified) in this test?
# output inactive

# input Which outcome was entered for the molecule COC(=O)C1=C(C)NC(CF)=C(C(=O)OC)C1c1cccc2c(=O)c3ccccc3oc12 (stereo unspecified) in this test?
# output inactive

# input Which outcome was entered for the molecule `Cc1nc2c(sc3nc4c(cc32)CCC4)c(=O)o1` in this test?
# output inactive

# input Which outcome was entered for the molecule C/C1=C\[C@H](C)C[C@H](C)OC(=O)C[C@H](c2ccc(O)cc2)NC(=O)[C@@H](Cc2c(Br)[nH]c3ccccc23)N(C)C(=O)[C@H](C)NC(=O)[C@@H](C)C1 [JASPAMIDE] in this test?
# output active

# input Which outcome was entered for the molecule `CC1(CCC(=O)OC2CCCCC2)OCCO1` in this test?
# output inactive

# input Which outcome was entered for the molecule `COc1c(Cl)c(=O)oc2ccc(Cl)cc12` in this test?
# output inactive

# input Which outcome was entered for the molecule `Clc1ccc(Cl)c(NNc2cc(Cl)ccc2Cl)c1` in this test?
# output inactive

# input Which outcome was entered for the molecule CC(C)CCCC(=O)CCCCCCC(=O)CCN(O)C(=O)C(N)CO (stereo unspecified) in this test?
# output inactive

# input Which outcome was entered for the molecule `Cc1cc(=O)nc(S(=O)(=O)NC(=O)Nc2cccc(Cl)c2)[nH]1` in this test?
# output inactive

# input Which outcome was entered for the molecule `CC(C)Oc1ccc(CNC2=NCCO2)c2ccccc12` in this test?
# output inactive

# input Which outcome was entered for the molecule CCC1=CC2Cc3nc4cc(Cl)ccc4c(N)c3C(C1)C2 (stereo unspecified) in this test?
# output inactive

# input Which outcome was entered for the molecule `CC(C)(C)/C(O)=C\c1nc2cc(C(F)(F)F)ccc2[nH]c1=O` in this test?
# output inactive

# input Which outcome was entered for the molecule `CN1CSC(=S)N(c2c3ccccc3nc3ccc(Br)cc23)C1` in this test?
# output inactive

# input Which outcome was entered for the molecule CCOC(=O)NNC1(SC)NC(=O)c2c(cc(Cl)oc2=O)O1 (stereo unspecified) in this test?
# output inactive

# input Which outcome was entered for the molecule `O=[N+]([O-])c1cc2ccc(N(CCO)CCO)nc2nc1N(CCO)CCO` in this test?
# output inactive

# input Which outcome was entered for the molecule CCOC(=O)[C@@]1(C)CC(O)C(=O)N1C (stereo partly specified) in this test?
# output inactive

# input Which outcome was entered for the molecule Nc1nc2c(ncn2CC2CCC(CO)C2)c(=O)[nH]1 (stereo unspecified) in this test?
# output inactive

# input Which outcome was entered for the molecule `O=C(NC(=S)Nc1ccc2c(c1)Sc1ccccc1O2)c1ccccc1` in this test?
# output inactive

# input Which outcome was entered for the molecule `Cc1cnc2c(c1)C(=O)N(c1ccc(Oc3ccccc3)cc1)S2(=O)=O` in this test?
# output inactive
